Target: CDK7/CycH/MNAT1 (Homo sapiens (Human), UniProt P50613)
Sequence (P50613 whole entry): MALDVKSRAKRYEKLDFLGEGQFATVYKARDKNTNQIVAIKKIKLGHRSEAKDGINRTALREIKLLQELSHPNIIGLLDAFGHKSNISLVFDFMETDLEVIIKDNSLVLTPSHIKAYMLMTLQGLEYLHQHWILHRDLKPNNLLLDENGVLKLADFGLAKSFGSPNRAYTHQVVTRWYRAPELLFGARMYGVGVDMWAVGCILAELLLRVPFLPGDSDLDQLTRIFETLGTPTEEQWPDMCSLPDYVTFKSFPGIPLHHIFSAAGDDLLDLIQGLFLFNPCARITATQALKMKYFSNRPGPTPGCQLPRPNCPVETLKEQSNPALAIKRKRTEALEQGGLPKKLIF
Sequence (P51946 whole entry partner): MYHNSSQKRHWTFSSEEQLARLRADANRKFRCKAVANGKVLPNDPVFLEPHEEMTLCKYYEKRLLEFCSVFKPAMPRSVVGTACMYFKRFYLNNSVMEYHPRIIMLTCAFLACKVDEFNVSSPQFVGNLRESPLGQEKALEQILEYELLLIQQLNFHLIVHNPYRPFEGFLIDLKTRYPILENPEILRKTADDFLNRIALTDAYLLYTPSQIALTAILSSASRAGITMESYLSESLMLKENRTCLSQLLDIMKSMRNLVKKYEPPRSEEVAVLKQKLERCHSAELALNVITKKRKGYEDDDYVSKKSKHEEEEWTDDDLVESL
Sequence (P51948 whole entry partner): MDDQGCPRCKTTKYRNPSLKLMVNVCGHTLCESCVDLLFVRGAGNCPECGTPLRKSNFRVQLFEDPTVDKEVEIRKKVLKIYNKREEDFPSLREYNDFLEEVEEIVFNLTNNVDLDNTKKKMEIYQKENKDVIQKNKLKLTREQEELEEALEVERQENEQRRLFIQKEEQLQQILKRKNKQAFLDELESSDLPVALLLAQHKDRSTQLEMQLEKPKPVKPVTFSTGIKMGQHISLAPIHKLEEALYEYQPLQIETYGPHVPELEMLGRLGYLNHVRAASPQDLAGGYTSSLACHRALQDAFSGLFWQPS
Experiment: Biochemical assay for CDK7 (TR-FRET kinase assay)
Conditions: 10 μM compound; 60 min pre-incubation; 1 mM ATP; read-out: % inhibition @ 10 μM
parameterMeasured: inhibition at 10 µM (%)
Express it in %; write the number only.

Here are 10 compounds together with their reported answers.
1. CC(C)c1cnn2c(NCc3cccc(NC(=O)C4COCCN4C(=O)/C=C/CN(C)C)c3)nc(NC3CCOCC3)nc12 (centres unmarked) ... 101
2. C=CC(=O)N1CCC(C(=O)Nc2cccc(Nc3nc(OC4CCN(C)CC4)nc4c(C(C)C)cnn34)c2)CC1 ... 95
3. C=CC(=O)N[C@H]1CC[C@@H](C(=O)Nc2cccc(CNc3nc(OC4CCOCC4F)nc4c(C(C)C)cnn34)c2)CC1 (single isomer, unassigned) ... 88
4. C=CC(=O)N1CCCC(C(=O)Nc2cccc(CNc3nc(NC4CCOCC4)nc4c(C(C)C)cnn34)c2)C1 (centres unmarked) ... 88
5. C=CC(=O)N1CCC1C(=O)Nc1cccc(Nc2nc(NC3CCOCC3)nc3c(C(C)C)cnn23)c1 (centres unmarked) ... 99
6. C=CC(=O)N1CCC(C(=O)Nc2cc(CNc3nc(NC4CCOCC4)nc4c(C(C)C)cnn34)ccc2F)C1 (centres unmarked) ... 79
7. CC(C)c1cnn2c(NCc3cccc(NC(=O)/C=C/CN4CCC(F)(F)C4)c3)nc(NC3CCOCC3)nc12 ... 84
8. C=CC(=O)N1CC[C@H]1C(=O)Nc1cccc(CNc2nc(NC3CCOCC3)nc3c(C(C)C)cnn23)c1 ... 100
9. C=CC(=O)N1CCC(C(=O)Nc2cc(F)cc(CNc3nc(NC4CCOCC4)nc4c(C(C)C)cnn34)c2)C1 (centres unmarked) ... 86
10. C=CC(=O)N1CCC1C(=O)Nc1ccc(F)c(CNc2nc(NC3CCOCC3)nc3c(C(C)C)cnn23)c1 (centres unmarked) ... 98

So what does the record say about inhibition at 10 µM for C=CC(=O)N1CCC(C(=O)Nc2cccc(CNc3nc(OCCOC)nc4c(C(C)C)cnn34)c2)C1 (centres unmarked) ? 80

Query CC(C)c1cnn2c(NCc3cccc(NC(=O)C4CCCCN4C(=O)/C=C/CN4CCCC4)c3)nc(NC3CCOCC3)nc12 (centres unmarked) next 99

Query C=CC(=O)N[C@H]1CC[C@@H](C(=O)Nc2cccc(CNc3nc(OC4CCOCC4)nc4c(C(C)C)cnn34)c2)CC1 next 87

Query C=CC(=O)N[C@H]1CC[C@H](C(=O)Nc2cccc(CNc3nc(OC4CCN(C)CC4)nc4c(C(C)C)cnn34)c2)CC1 next 94

----------
As shown below, each of these compounds has a reported pEC50 value.
Tested on: RNA polymerase II CTD phosphorylation (MDA-MB-231/NCI-H358 cells)
Assay: Inhibition of RNA polymerase II CTD phosphorylation in cell western assay
Assay type: cell-based
Settings: 4 hours incubation, phospho RNA Pol II Ser-5 or Ser-2
Method: 25000 cells (MDA-MB-231/NCI-H358) were seeded in 96 well black clear bottom plate incubated for overnight before addition of selected compound. 3 fold dilutions of selected compound diluted in DMSO starting from 10 μM, added to cells and incubated for 4 hours at 37° C., 5% CO2 incubator. […] Europium readings were taken in Victor-3 instrument. […]
pEC50: −log10 of the molar value.

Here are 6 compounds together with their reported answers.
1) C=CC(=O)Nc1ccc(C(=O)Nc2cccc(Nc3nc(OC4CCN(C)CC4)nc4c(C(C)C)cnn34)c2)cc1 ... ≥ 6.00
2) C=CC(=O)N[C@H]1CC[C@@H](C(=O)Nc2cccc(CNc3nc(NC4CCOCC4)nc4c(C(C)C)cnn34)c2F)CC1 ... 5.00 to 6.00
3) C=CC(=O)Nc1cn(C)nc1C(=O)Nc1cccc(CNc2nc(NC3CCOCC3)nc3c(C(C)C)cnn23)c1 ... 5.00 to 6.00
4) C=CC(=O)N1CCCC(C(=O)Nc2cccc(CNc3nc(OC4CCOCC4)nc4c(C(C)C)cnn34)c2)C1 (stereo not shown) ... 5.00 to 6.00
5) C=CC(=O)N1CC(C(=O)Nc2cccc(CNc3nc(NC4CCOCC4)nc4c(C(C)C)cnn34)c2)C1 ... ≥ 6.00
6) C=CC(=O)N1CCC(C(=O)Nc2cccc(CNc3nc(OC4CCN(C)CC4)nc4c(CC)cnn34)c2)CC1 ... 5.00 to 6.00

So what does the record say about pEC50 for C=CC(=O)N[C@H]1CC[C@@H](C(=O)Nc2cccc(CNc3nc(OC4CCN(C)CC4)nc4c(C5CC5)cnn34)c2)CC1 ? < 5.00
